# TARGET OR TEST SYSTEM: Muscarinic acetylcholine receptor M3 (Homo sapiens)
# Sequence (P20309 whole entry): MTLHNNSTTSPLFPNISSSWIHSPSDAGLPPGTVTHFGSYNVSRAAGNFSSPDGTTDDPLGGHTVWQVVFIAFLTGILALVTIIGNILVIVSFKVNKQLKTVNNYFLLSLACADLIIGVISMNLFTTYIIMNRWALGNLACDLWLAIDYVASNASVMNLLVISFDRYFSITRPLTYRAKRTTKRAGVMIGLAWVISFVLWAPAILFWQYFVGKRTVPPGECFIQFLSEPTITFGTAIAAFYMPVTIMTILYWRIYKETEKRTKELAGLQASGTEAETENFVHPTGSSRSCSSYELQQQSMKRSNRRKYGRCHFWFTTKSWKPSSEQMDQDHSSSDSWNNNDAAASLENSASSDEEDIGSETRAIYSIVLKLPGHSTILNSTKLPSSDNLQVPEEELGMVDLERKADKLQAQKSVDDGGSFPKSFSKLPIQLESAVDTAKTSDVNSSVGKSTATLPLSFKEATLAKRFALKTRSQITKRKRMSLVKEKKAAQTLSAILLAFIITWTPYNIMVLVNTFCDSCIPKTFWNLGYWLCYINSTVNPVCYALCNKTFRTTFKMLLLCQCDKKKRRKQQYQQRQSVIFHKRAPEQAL
# ASSAY NAME: Antagonist activity at human muscarinic M3 receptor expressed in CHO cells co-expressing Gqi5 assessed as inhibition of acetylcholine-induced calcium mobilization
pIC50: −log10 of the molar value.
MEASURE NAME: pIC50

Value of measured pIC50 for the entry `Fc1cc(F)c(F)c(-c2ccc(N[C@H]3C[C@@H]4CN(CC5CCOCC5)C[C@@H]4C3)nn2)c1` : < 5.00

###

# ASSAY NAME: Elimination half life in Beagle dog at 1 mg/kg, iv measured upto 24 hrs by LC-MS/MS analysis
# Assay type: ADME, organism-based, Canis lupus familiaris
# SETUP CONDITIONS: in vivo, read-out: beta t1/2 (converted)
MEASURE NAME: half-life (h)
Just the number in h, nothing appended.

For record `Fc1cc(F)c(F)c(-c2ccc(N[C@H]3C[C@@H]4CN(CC5CCOCC5)C[C@@H]4C3)nn2)c1` the listed half-life is 15
